Tested on: Bacterium LMB64
measurement-notes: Antibiotic sensitivity of bacterium LMB64, zone of inhibition
Format: cell-based
condition-parameters: LB ⅕ dilution medium; disc load given with each antibiotic
parameter-measured: Zone of inhibition diameter (mm) LB ⅕
Unit mm implied. Number only.

substance-smiles | Zone of inhibition diameter (mm) LB ⅕
CO[C@H]1/C=C/O[C@@]2(C)Oc3c(C)c(O)c4c(O)c(c(/C=N/N5CCN(C)CC5)c(O)c4c3C2=O)NC(=O)/C(C)=C\C=C\[C@H](C)[C@H](O)[C@@H](C)[C@@H](O)[C@@H](C)[C@H](OC(C)=O)[C@@H]1C | 15
[H]/N=C(/N)N[C@H]1[C@H](O)[C@@H](O)[C@H](O[C@@H]2O[C@@H](C)[C@](O)(C=O)[C@H]2O[C@@H]2O[C@@H](CO)[C@H](O)[C@@H](O)[C@@H]2NC)[C@@H](N/C(N)=N\[H])[C@@H]1O | 24

Next molecule, please.
The molecule identified as O=C(O)c1cn(C2CC2)c2cc(N3CCNCC3)c(F)cc2c1=O registered its Zone of inhibition diameter (mm) LB ⅕ at 34
